molecular target: Carbonic anhydrase 15 (Mus musculus, UniProt Q99N23)
Sequence (Q99N23 whole entry): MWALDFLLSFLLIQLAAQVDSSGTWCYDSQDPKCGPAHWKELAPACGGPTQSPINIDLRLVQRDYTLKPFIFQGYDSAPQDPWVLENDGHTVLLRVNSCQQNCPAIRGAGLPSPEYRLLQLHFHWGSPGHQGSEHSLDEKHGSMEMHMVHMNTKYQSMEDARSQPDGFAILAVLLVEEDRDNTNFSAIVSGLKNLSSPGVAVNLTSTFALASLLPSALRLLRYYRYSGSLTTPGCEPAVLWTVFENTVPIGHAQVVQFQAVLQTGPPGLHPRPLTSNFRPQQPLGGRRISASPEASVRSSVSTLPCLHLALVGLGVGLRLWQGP
result.type: Ki (nM)
Give bare numbers, in nM.

Consider the molecule Oc1ccc(C=Cc2cc(O)cc(O)c2)cc1 (mixture of isomers) and give its measured Ki.
2570

---

molecular target: Carbonic anhydrase 9 (Homo sapiens, UniProt Q16790); assay: Inhibition of transmembrane tumor-associated human carbonic anhydrase 9 preincubated for 12 hrs by stopped flow CO2 hydration assay
result.type: pKi
Answers are plain numbers, as −log10 of the molar value.

See these solved cases before continuing.
{"columns": ["molecule", "pKi"],
 "data": [
  ["O=c1cc(-c2ccccc2)oc2ccccc12 [FLAVONE]", 5.37],
  ["O=c1cc(-c2ccccc2)oc2cc(O)cc(O)c12 [CHRYSIN]", 5.57],
  ["O=c1cc(-c2ccccc2)oc2cc(O)ccc12 [7-HYDROXYFLAVONE]", 5.31]
]}

Next molecule, pKi to be filled in.
What measured pKi goes with O=c1c(O)c(-c2ccccc2)oc2ccccc12 [FLAVONOL] ?
5.25

---

biological target: UniProt P43166
Sequence (P43166 whole entry): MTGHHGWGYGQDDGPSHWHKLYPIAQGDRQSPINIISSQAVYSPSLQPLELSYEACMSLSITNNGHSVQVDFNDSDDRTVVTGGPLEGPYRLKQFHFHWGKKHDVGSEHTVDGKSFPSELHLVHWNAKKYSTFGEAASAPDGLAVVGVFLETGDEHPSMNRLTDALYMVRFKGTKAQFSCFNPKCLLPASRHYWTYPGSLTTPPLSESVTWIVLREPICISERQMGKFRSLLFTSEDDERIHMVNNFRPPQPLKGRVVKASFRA
result.type: Ki (µM)
Numbers only, in µM.

Which measured Ki value corresponds to COc1ccc(-c2c(N)oc3ccc(Cl)cc3c2=O)cc1 ?
6.75

---

Consider the following molecules; for each one, report its pKi.
molecular target: Carbonic anhydrase 12 (Homo sapiens, UniProt O43570); assay: Inhibition of transmembrane tumor-associated human carbonic anhydrase 12 preincubated for 12 hrs by stopped flow CO2 hydration assay
Sequence (O43570 whole entry): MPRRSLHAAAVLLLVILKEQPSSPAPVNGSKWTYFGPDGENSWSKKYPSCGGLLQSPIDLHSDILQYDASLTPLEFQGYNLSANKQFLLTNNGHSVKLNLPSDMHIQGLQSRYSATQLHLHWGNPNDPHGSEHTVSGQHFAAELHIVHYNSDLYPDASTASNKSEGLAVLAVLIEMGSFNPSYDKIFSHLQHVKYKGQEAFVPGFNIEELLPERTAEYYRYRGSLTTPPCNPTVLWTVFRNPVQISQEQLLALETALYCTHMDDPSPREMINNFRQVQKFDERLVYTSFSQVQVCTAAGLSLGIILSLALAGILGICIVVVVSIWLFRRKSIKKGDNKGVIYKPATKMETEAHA
Answers are plain numbers, as −log10 of the molar value.

Please review the following examples before continuing.
{"columns": ["molecule", "pKi"],
 "data": [
  ["O=c1c(O)c(-c2ccccc2)oc2ccccc12 [FLAVONOL]", 5.18],
  ["O=c1cc(-c2ccccc2)oc2ccccc12 [FLAVONE]", 5.13],
  ["O=c1cc(-c2ccccc2)oc2cc(O)cc(O)c12 [CHRYSIN]", 5.04]
]}

# get_value(readout='pKi', item= O=c1cc(-c2ccccc2)oc2cc(O)ccc12 [7-HYDROXYFLAVONE] )
5.07

---

target: Carbonic anhydrase 9 (Homo sapiens); experiment: Inhibition of transmembrane tumor-associated human carbonic anhydrase 9 preincubated for 15 mins by stopped flow CO2 hydration assay
result.type: Ki (µM)
One number for each entry, in µM.

Record excerpt, results attached:
{"columns": ["compound", "Ki [µM]"],
 "data": [
  ["COc1ccc(-c2c(N)oc3ccc(Cl)cc3c2=O)cc1", 2.41],
  ["Nc1oc2ccc(Cl)cc2c(=O)c1-c1ccc(Cl)cc1", 3.4],
  ["O=c1c(O)c(-c2ccccc2)oc2ccccc12 [FLAVONOL]", 5.54],
  ["O=c1cc(-c2ccccc2)oc2cc(O)ccc12 [7-HYDROXYFLAVONE]", 4.92],
  ["O=c1cc(-c2ccccc2)oc2cc(O)cc(O)c12 [CHRYSIN]", 2.65]
]}

Please state Ki for every compound in the list that follows.
1. Oc1ccc(C=Cc2cc(O)cc(O)c2)cc1 (mixture of isomers)
2. O=c1cc(-c2ccccc2)oc2ccccc12 [FLAVONE]

[9.53, 4.13]

---

target: Carbonic anhydrase 2 (Homo sapiens, UniProt P00918); experiment: Inhibition of cytosolic human carbonic anhydrase 2 preincubated for 15 mins by stopped flow CO2 hydration assay
result.type: pKi
Give bare numbers, as −log10 of the molar value.

Example cases with answers are listed next.
{"columns": ["compound", "result.type", "data.value"],
 "data": [
  ["O=c1c(O)c(-c2ccccc2)oc2ccccc12", "pKi", 5.03],
  ["O=c1cc(-c2ccccc2)oc2cc(O)ccc12 [7-HYDROXYFLAVONE]", "pKi", 5.65],
  ["O=c1cc(-c2ccccc2)oc2cc(O)cc(O)c12", "pKi", 5.36],
  ["O=c1cc(-c2ccccc2)oc2ccccc12", "pKi", 5.06]
]}

Now let's try a different one.
Form entry - test system: Carbonic anhydrase 2 (Homo sapiens, UniProt P00918); read-out: pKi; compound: Oc1ccc(C=Cc2cc(O)cc(O)c2)cc1 (mixture of isomers)
5.76

The measurements presented in this section are drawn from ChEMBL document CHEMBL2016452.
